These entries and their values trace back to patent US20190071490A1.

- system-name: T1, human α-CGRP (Homo sapiens, UniProt P06881)
- T1 construct: 1-37 (WT); purchased GenScript Corporation or Global Peptide Services
- T1 sequence (P06881 83-119 limits assumed): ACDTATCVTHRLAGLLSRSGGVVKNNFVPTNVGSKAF
- test-name: Biacore SPR affinity of Fab fragments to N-biotinylated human α-CGRP on SA chip
- Format: binding
- stated-conditions: 37° C., screening mode except underlined values
quantity-kind: α-human koff (s⁻¹)
Provide only the numeric value, understood in s⁻¹.

The measured α-human koff associated with M37: G1 variant; L1 R28N T30S; H2 A57G; HC-FW3 L99T A100V (antibody, V domains shown) VH: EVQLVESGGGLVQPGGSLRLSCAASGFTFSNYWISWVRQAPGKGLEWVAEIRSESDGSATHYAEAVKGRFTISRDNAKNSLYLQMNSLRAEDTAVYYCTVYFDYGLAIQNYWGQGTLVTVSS VL: EIVLTQSPATLSLSPGERATLSCKASKNVSTYVSWYQQKPGQAPRLLIYGASNRYLGIPARFSGSGSGTDFTLTISSLEPEDFAVYYCSQSYNYPYTFGQGTKLEIK reads 0.000226

The measured α-human koff associated with M56: G1 variant; L1 R28N T30D; L2 L56S; H2 E54K A57N H61F; HC-FW3 L99T A100V (antibody, V domains shown) VH: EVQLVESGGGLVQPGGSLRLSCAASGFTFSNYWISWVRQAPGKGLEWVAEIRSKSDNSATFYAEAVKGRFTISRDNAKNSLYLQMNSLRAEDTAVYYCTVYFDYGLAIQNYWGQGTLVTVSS VL: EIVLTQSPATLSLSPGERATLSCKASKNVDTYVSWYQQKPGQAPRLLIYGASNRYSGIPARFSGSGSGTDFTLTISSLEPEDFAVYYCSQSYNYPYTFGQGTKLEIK reads 0.000479

The measured α-human koff associated with M26: G1 variant; L1 R28N; H2 A57G; HC-FW3 L99T A100V (antibody, V domains shown) VH: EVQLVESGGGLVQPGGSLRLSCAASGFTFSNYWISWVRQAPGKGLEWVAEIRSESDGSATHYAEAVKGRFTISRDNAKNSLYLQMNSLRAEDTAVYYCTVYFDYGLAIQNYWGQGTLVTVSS VL: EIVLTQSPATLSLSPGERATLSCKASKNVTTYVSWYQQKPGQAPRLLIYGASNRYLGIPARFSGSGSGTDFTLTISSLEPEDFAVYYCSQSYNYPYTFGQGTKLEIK reads 0.000148

---
The measured α-human koff associated with M63: G1 variant; L1 R28N T30G; L2 G50A; H2 E54K A57N S58T; HC-FW3 L99T A100V (antibody, V domains shown) VH: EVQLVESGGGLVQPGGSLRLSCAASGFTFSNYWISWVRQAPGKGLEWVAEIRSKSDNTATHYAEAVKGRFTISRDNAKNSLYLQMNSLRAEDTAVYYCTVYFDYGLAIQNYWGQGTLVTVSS VL: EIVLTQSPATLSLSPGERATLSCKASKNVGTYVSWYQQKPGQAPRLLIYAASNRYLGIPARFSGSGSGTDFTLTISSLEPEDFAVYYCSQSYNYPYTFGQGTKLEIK reads 0.0015
